Test: in vitro
Conditions: human, WI38 cells
Description: Selectivity index, ratio of IC50 against human WI38 cells to IC50 for Trypanosoma brucei brucei Lister 427 bloodstream forms
The reader will find reported selectivity ratio values listed item by item below.

| COMPOUND | selectivity ratio |
| --- | --- |
| C=C[C@H]1CN2CC[C@H]1C[C@@H]2[C@@H](O)c1cc(CC[C@@H](C)[C@H]2CC[C@H]3[C@@H]4CC[C@@H]5C[C@H](O)CC[C@]5(C)[C@H]4C[C@H](O)[C@]23C)nc2ccccc12 | 5 |
| C=C[C@H]1CN2CC[C@H]1C[C@H]2[C@H](O)c1cc(CC[C@@H](C)[C@H]2CC[C@H]3[C@@H]4CC[C@@H]5C[C@H](OC(C)=O)CC[C@]5(C)[C@H]4C[C@H](OC(C)=O)[C@]23C)nc2ccc(OC)cc12 | 3 |
| C=C[C@H]1CN2CC[C@H]1C[C@H]2[C@H](O)c1cc(CC[C@@H](C)[C@H]2CC[C@H]3[C@@H]4CC[C@@H]5C[C@H](O)CC[C@]5(C)[C@H]4C[C@H](O)[C@]23C)nc2ccc(OC)cc12 | 8.2 |
| C=C[C@H]1CN2CC[C@H]1C[C@H]2[C@H](O)c1cc(CC[C@@H](C)[C@H]2CC[C@H]3[C@@H]4[C@H](O)C[C@@H]5C[C@H](O)CC[C@]5(C)[C@H]4C[C@H](O)[C@]23C)nc2ccc(OC)cc12 | 12.3 |
| C=C[C@H]1CN2CC[C@H]1C[C@H]2[C@H](O)c1cc(CC[C@@H](C)[C@H]2CC[C@H]3[C@@H]4C[C@H](OC(C)=O)[C@@H]5C[C@H](OC(C)=O)CC[C@]5(C)[C@H]4CC[C@]23C)nc2ccc(OC)cc12 | 3.9 |
| C=C[C@H]1CN2CC[C@H]1C[C@H]2[C@H](O)c1ccnc2ccc(OC)cc12 [QUININE] | 1 |
| C=C[C@H]1CN2CC[C@H]1C[C@@H]2[C@@H](O)c1cc(CC[C@@H](C)[C@H]2CC[C@H]3[C@@H]4C[C@H](OC(C)=O)[C@@H]5C[C@H](OC(C)=O)CC[C@]5(C)[C@H]4CC[C@]23C)nc2ccc(OC)cc12 | 3.1 |
| C=C[C@H]1CN2CC[C@H]1C[C@@H]2[C@@H](O)c1cc(CC[C@@H](C)[C@H]2CC[C@H]3[C@@H]4[C@H](O)C[C@@H]5C[C@H](O)CC[C@]5(C)[C@H]4C[C@H](O)[C@]23C)nc2ccc(OC)cc12 | 9.8 |
| C=C[C@H]1CN2CC[C@H]1C[C@H]2[C@H](O)c1cc(CC[C@@H](C)[C@H]2CC[C@H]3[C@@H]4[C@H](OC(C)=O)[C@H](OC(C)=O)[C@@H]5C[C@H](OC(C)=O)CC[C@]5(C)[C@H]4CC[C@]23C)nc2ccccc12 | 7.2 |
